Test: Oral bioavailability of hydrocodone conjugates in rats, LC/MS/MS
Conditions: male, Sprague-Dawley, rat, plasma, po, 1 mg/kg
PARAMETER: concentration at 2 h (ng/mL)
Provide the reading as a plain figure in ng/mL.

INPUT: # concentration at 2 h lookup, item COc1ccc2c3c1O[C@H]1C(=O)CC[C@H]4[C@@H](C2)N(C)CC[C@]314 [Hydrocodone, reference compound]
OUTPUT: 2.6

---

Each item that follows carries a reported hydrocodone plus hydromorphone concentration.
Assay: Intravenous bioavailability of hydrocodone conjugates in rats, LC/MS/MS
Details: intravenous, 1 mg/kg dose, 60 Minutes
Where a SMILES comes first, the peptide text is derived from it. The star is where a group is joined. X1 = COc1ccc2c3c1O[C@H]1C(O*)=CC[C@H]4[C@@H](C2)N(C)CC[C@]314
Expressed in ng/mL, but write only the number.

CC[C@H](C)[C@H](NC(=O)[C@H](Cc1ccc(O)cc1)NC(=O)[C@@H](N)Cc1ccc(O)cc1)C(=O)OC1=CC[C@H]2[C@H]3Cc4ccc(OC)c5c4[C@@]2(CCN3C)[C@H]1O5 [YYI-HC, Tyr-Tyr-Ile-Hydrocodone]
3
CC[C@H](C)[C@H](NC(=O)[C@H](Cc1ccccc1)NC(=O)[C@H](Cc1ccccc1)NC(=O)[C@H](Cc1ccc(O)cc1)NC(=O)[C@@H](N)Cc1ccc(O)cc1)C(=O)OC1=CC[C@H]2[C@H]3Cc4ccc(OC)c5c4[C@@]2(CCN3C)[C@H]1O5 [YYFFI[SEQ ID NO: 8]-HC] (H-YYFFI-X1)
18
CC[C@H](C)[C@H](NC(=O)[C@H](Cc1ccccc1)NC(=O)[C@H](Cc1ccccc1)NC(=O)[C@H](CCC(=O)O)NC(=O)[C@@H](N)CCC(=O)O)C(=O)OC1=CC[C@H]2[C@H]3Cc4ccc(OC)c5c4[C@@]2(CCN3C)[C@H]1O5 [EEFFI[SEQ ID NO: 5]-HC] (H-EEFFI-X1)
66

INPUT: Would you kindly share the measured hydrocodone plus hydromorphone concentration for COc1ccc2c3c1O[C@H]1C(OC(=O)[C@H](Cc4ccccc4)NC(=O)[C@H](Cc4ccccc4)NC(=O)[C@H](Cc4ccccc4)NC(=O)[C@H](CCC(=O)O)NC(=O)[C@@H](N)CCC(=O)O)=CC[C@H]4[C@@H](C2)N(C)CC[C@]314 [EEFFF[SEQ ID NO: 3]-HC] (H-EEFFF-X1) ?
OUTPUT: 85

---

Assay: Oral bioavailability of hydrocodone conjugates in rats, LC/MS/MS
Settings: male, Sprague-Dawley, rat, plasma, po, 25 mg/kg
PARAMETER: concentration at 0.5 h (ng/mL)
Your answer should be a plain number; it is taken to be in ng/mL.

INPUT: Name the recorded concentration at 0.5 h for COc1ccc2c3c1O[C@H]1C(=O)CC[C@H]4[C@@H](C2)N(C)CC[C@]314 [Hydrocodone, reference compound] .
OUTPUT: 154

---

Assay: Oral bioavailability in rats at escalating doses, LC/MS/MS
Conditions: male, Sprague-Dawley, rat, in vivo, po, […]
PARAMETER: Tmax (min)
Use min as the unit, but write only the number.

INPUT: Requested read-out: Tmax. Entry: CC(Cc1ccccc1)NC(=O)C(N)CCCCN [L-lysine-d-amphetamine]
OUTPUT: 15

---

Experiment: Crossover pharmacokinetics in dogs, oral vs 30-min intravenous infusion, LC-MS/MS
Type: in vivo, male beagle dogs
Details: male, beagle, dog, plasma, po, 1 mg/kg, male beagle dog; oral; 1 mg/kg d-amphetamine base; mean; read-out: Cmax of L-lysine-d-amphetamine
PARAMETER: Cmax (ng/mL)
Hi! Could you send only the number? It should be in ng/mL, unit omitted.

INPUT: Any idea what its Cmax is? The compound is CC(Cc1ccccc1)NC(=O)C(N)CCCCN [L-lysine-d-amphetamine]
OUTPUT: 328

---

Test: Crossover pharmacokinetics in dogs, oral vs 30-min intravenous infusion, LC-MS/MS
Type: in vivo, male beagle dogs
Conditions: male, beagle, dog, plasma, iv, 1 mg/kg; read-out: Tmax of L-lysine-d-amphetamine (median)
PARAMETER: Tmax (min)
// return numeric value only (unit: min, not printed)

INPUT: Consider the compound shown here: CC(Cc1ccccc1)NC(=O)C(N)CCCCN (stereo not shown) What is its recorded Tmax?
OUTPUT: 29.4

---

Reported hydrocodone plus hydromorphone concentration by item:
Assay: Intravenous bioavailability of hydrocodone conjugates in rats, LC/MS/MS
Conditions: intravenous, 1 mg/kg dose, 5 Minutes
Where a SMILES comes first, the peptide text is derived from it. The star is where a group is joined. X1 = COc1ccc2c3c1O[C@H]1C(O*)=CC[C@H]4[C@@H](C2)N(C)CC[C@]314
The reply should be a number in ng/mL, with the unit left off.

Example results:
CC[C@H](C)[C@H](NC(=O)[C@H](Cc1ccccc1)NC(=O)[C@H](Cc1ccccc1)NC(=O)[C@H](CCC(=O)O)NC(=O)[C@@H](N)CCC(=O)O)C(=O)OC1=CC[C@H]2[C@H]3Cc4ccc(OC)c5c4[C@@]2(CCN3C)[C@H]1O5 [EEFFI[SEQ ID NO: 5]-HC] (H-EEFFI-X1)
89
CC[C@H](C)[C@H](NC(=O)[C@H](Cc1ccc(O)cc1)NC(=O)[C@@H](N)Cc1ccc(O)cc1)C(=O)OC1=CC[C@H]2[C@H]3Cc4ccc(OC)c5c4[C@@]2(CCN3C)[C@H]1O5 [YYI-HC, Tyr-Tyr-Ile-Hydrocodone]
9

INPUT: Request the reported hydrocodone plus hydromorphone concentration associated with COc1ccc2c3c1O[C@H]1C(OC(=O)[C@H](Cc4ccccc4)NC(=O)[C@H](Cc4ccccc4)NC(=O)[C@H](Cc4ccccc4)NC(=O)[C@H](CCC(=O)O)NC(=O)[C@@H](N)CCC(=O)O)=CC[C@H]4[C@@H](C2)N(C)CC[C@]314 [EEFFF[SEQ ID NO: 3]-HC] (H-EEFFF-X1)
OUTPUT: 135

INPUT: Name the recorded hydrocodone plus hydromorphone concentration for CC[C@H](C)[C@H](NC(=O)[C@H](Cc1ccccc1)NC(=O)[C@H](Cc1ccccc1)NC(=O)[C@H](Cc1ccc(O)cc1)NC(=O)[C@@H](N)Cc1ccc(O)cc1)C(=O)OC1=CC[C@H]2[C@H]3Cc4ccc(OC)c5c4[C@@]2(CCN3C)[C@H]1O5 [YYFFI[SEQ ID NO: 8]-HC] (H-YYFFI-X1) .
OUTPUT: 171

---

Experiment: Oral bioavailability of hydrocodone conjugates in rats, LC/MS/MS
Conditions: male, Sprague-Dawley, rat, plasma, po, 2 mg/kg
PARAMETER: concentration at 0 h
Field: value (include unit after the number)

INPUT: Which measured concentration at 0 h value corresponds to COc1ccc2c3c1O[C@H]1C(=O)CC[C@H]4[C@@H](C2)N(C)CC[C@]314 [Hydrocodone, reference compound] ?
OUTPUT: 0 ng/mL

---

# hydrocodone plus hydromorphone concentration values compiled below
Test: Oral bioavailability of hydrocodone conjugates in rats, LC/MS/MS
Details: oral, 5 mg/kg dose, 5 Hours
Where a SMILES comes first, the peptide text is derived from it. The star is where a group is joined. X1 = COc1ccc2c3c1O[C@H]1C(O*)=CC[C@H]4[C@@H](C2)N(C)CC[C@]314

A selection of reference data follows.
CC[C@H](C)[C@H](NC(=O)[C@H](Cc1ccc(O)cc1)NC(=O)[C@@H](N)Cc1ccc(O)cc1)C(=O)OC1=CC[C@H]2[C@H]3Cc4ccc(OC)c5c4[C@@]2(CCN3C)[C@H]1O5 [YYI-HC, Tyr-Tyr-Ile-Hydrocodone]
1.6 ng/mL
CC[C@H](C)[C@H](NC(=O)[C@H](Cc1ccccc1)NC(=O)[C@H](Cc1ccccc1)NC(=O)[C@H](Cc1ccc(O)cc1)NC(=O)[C@@H](N)Cc1ccc(O)cc1)C(=O)OC1=CC[C@H]2[C@H]3Cc4ccc(OC)c5c4[C@@]2(CCN3C)[C@H]1O5 [YYFFI[SEQ ID NO: 8]-HC] (H-YYFFI-X1)
8.3 ng/mL
CC[C@H](C)[C@H](NC(=O)[C@H](CC(=O)O)NC(=O)[C@@H](N)CC(=O)O)C(=O)OC1=CC[C@H]2[C@H]3Cc4ccc(OC)c5c4[C@@]2(CCN3C)[C@H]1O5 [DDI-HC, Asp-Asp-Ile-Hydrocodone]
4 ng/mL

INPUT: # get_value(readout='hydrocodone plus hydromorphone concentration', item= CC[C@H](C)[C@H](NC(=O)[C@H](Cc1ccccc1)NC(=O)[C@H](Cc1ccccc1)NC(=O)[C@H](CCC(=O)O)NC(=O)[C@@H](N)CCC(=O)O)C(=O)OC1=CC[C@H]2[C@H]3Cc4ccc(OC)c5c4[C@@]2(CCN3C)[C@H]1O5 [EEFFI[SEQ ID NO: 5]-HC] (H-EEFFI-X1) )
OUTPUT: 4.2 ng/mL

---

Experiment: Oral bioavailability of hydrocodone conjugates in rats, LC/MS/MS
Details: male, Sprague-Dawley, rat, plasma, po, 5 mg/kg
PARAMETER: Cmax (ng/mL)
Express the result in ng/mL but write the number alone.

INPUT: Param item = COc1ccc2c3c1O[C@H]1C(=O)CC[C@H]4[C@@H](C2)N(C)CC[C@]314 [Hydrocodone, reference compound] ; retrieve measured Cmax.
OUTPUT: 629
